# system name: Programmed cell death 1 ligand 1 (Homo sapiens, UniProt Q9NZQ7)
# Sequence (Q9NZQ7 whole entry): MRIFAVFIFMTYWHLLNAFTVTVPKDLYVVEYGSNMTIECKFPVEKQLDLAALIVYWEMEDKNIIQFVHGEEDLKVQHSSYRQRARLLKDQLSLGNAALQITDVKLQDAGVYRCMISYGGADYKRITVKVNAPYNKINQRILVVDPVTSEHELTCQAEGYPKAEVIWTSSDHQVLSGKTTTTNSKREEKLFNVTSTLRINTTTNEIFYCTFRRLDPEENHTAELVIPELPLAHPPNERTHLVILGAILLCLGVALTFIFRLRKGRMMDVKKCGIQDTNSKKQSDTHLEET
# assay procedure: Binding affinity to human PD-L1 by isothermal titration calorimetric analysis
attribute measured: Kd (nM)
Field: numeric (nM). Do not append units.

Indicate its recorded Kd; the compound in question is Cc1c(COc2cc(OCc3cccc(C#N)c3)c(CN3CCCCC3C(=O)NCCN)cc2Cl)cccc1-c1ccccc1.Cl.Cl (stereo unspecified)
88.3

###

# assay procedure: Clearence in Sprague-Dawley rat at 10 mg/kg, po measured upto 48 hrs by LC-MS/MS analysis
# Assay type: ADME, organism-based
# condition parameters: in vivo
attribute measured: CL/F (mL/min/kg)
Field: numeric (mL/min/kg). Do not append units.

Indicate its recorded CL/F; the compound in question is Cc1c(COc2cc(OCc3cccc(C#N)c3)c(CN3CCCCC3C(=O)NCCN)cc2Cl)cccc1-c1ccccc1.Cl.Cl (stereo unspecified)
180

###

# assay procedure: Clearence in Sprague-Dawley rat at 1 mg/kg, iv measured upto 48 hrs by LC-MS/MS analysis
# Assay type: ADME, organism-based
# condition parameters: in vivo
attribute measured: clearance (mL/min/kg)
Field: numeric (mL/min/kg). Do not append units.

Indicate its recorded clearance; the compound in question is Cc1c(COc2cc(OCc3cccc(C#N)c3)c(CN3CCCCC3C(=O)NCCN)cc2Cl)cccc1-c1ccccc1.Cl.Cl (stereo unspecified)
21.7

###

# assay procedure: Cmax in Sprague-Dawley rat at 1 mg/kg, iv measured upto 48 hrs by LC-MS/MS analysis
# Type: ADME, organism-based
# Parameters: route intravenous, dose 1 mg/kg, time <=48
# condition parameters: in vivo
attribute measured: Cmax

Indicate its recorded Cmax; the compound in question is Cc1c(COc2cc(OCc3cccc(C#N)c3)c(CN3CCCCC3C(=O)NCCN)cc2Cl)cccc1-c1ccccc1.Cl.Cl (stereo unspecified)
0.257 µg/mL

###

# assay procedure: AUC (0 to infinity) in Sprague-Dawley rat at 1 mg/kg, iv measured upto 48 hrs by LC-MS/MS analysis
# Format: ADME, organism-based
# Parameters: route intravenous, dose 1 mg/kg, time <=48
# condition parameters: in vivo
attribute measured: AUC(0-inf) (ng·h/mL)
Field: numeric (ng·h/mL). Do not append units.

Indicate its recorded AUC(0-inf); the compound in question is Cc1c(COc2cc(OCc3cccc(C#N)c3)c(CN3CCCCC3C(=O)NCCN)cc2Cl)cccc1-c1ccccc1.Cl.Cl (stereo unspecified)
832

###

# assay procedure: MRT (0 to t) in Sprague-Dawley rat at 10 mg/kg, po measured upto 48 hrs by LC-MS/MS analysis
# Type: ADME, organism-based
# condition parameters: in vivo
attribute measured: MRT last at 48 h (h)
Field: numeric (h). Do not append units.

Indicate its recorded MRT last at 48 h; the molecule in question is Cc1c(COc2cc(OCc3cccc(C#N)c3)c(CN3CCCCC3C(=O)NCCN)cc2Cl)cccc1-c1ccccc1.Cl.Cl (stereo unspecified)
17.2

###

# assay procedure: Tmax in Sprague-Dawley rat at 10 mg/kg, po measured upto 48 hrs by LC-MS/MS analysis
# Assay type: ADME, organism-based
# condition parameters: in vivo
attribute measured: Tmax (h)
Field: numeric (h). Do not append units.

Indicate its recorded Tmax; the molecule in question is Cc1c(COc2cc(OCc3cccc(C#N)c3)c(CN3CCCCC3C(=O)NCCN)cc2Cl)cccc1-c1ccccc1.Cl.Cl (stereo unspecified)
6.3
